src = ChEMBL document CHEMBL4028909

test: Cmax in mouse at 10 mg/kg, po; type: ADME, organism-based; design: dose 10 mg/kg, route oral; settings: in vivo
READOUT: Cmax

Request: What value of Cmax has been reported for the following molecule? `COCCCc1ccc2oc(-c3ccc(OC)c(OC)c3)cc2c1`
Response: 660 ng/mL

====

experiment: Cmax in mouse at 30 mg/kg, po; assay type: ADME, organism-based; design: dose 30 mg/kg, route oral; details: in vivo
READOUT: Cmax (ng/mL)
Write it as a number; the unit ng/mL goes unstated.

Request: What value of Cmax has been reported for the following compound? `COCCCc1ccc2oc(-c3ccc(OC)c(OC)c3)cc2c1`
Response: 1700
